The reported measurements were obtained from PubChem BioAssay AID2060609.

Listing of recorded viability, T/C by entry.
- Tested on: 855422-203-R-J1-PDC complex spheroids, viability;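 also: spheroids exposed to drugs for seven days before readout; 100% = DMSO vehicle control wells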
- MEASUREMENT PROTOCOL: Anticancer human tumor 855422-203-R-J1-PDC patient-derived bladder carcinoma cell line growth inhibition [CLK]
- SETTINGS: second compound 0.0316 µM; first compound 0.0949 µM; active compounds read low
// units = %; emit number, no label

Worked examples, 3 molecules total:
- C=CC(=O)Nc1cc(Nc2nccc(-c3cn(C)c4ccccc34)n2)c(OC)cc1N(C)CCN(C)C + CNC(=O)c1ccc(Nc2nc(OC3CCCC3)c3c(-c4ccc5nc(C)oc5c4)c[nH]c3n2)c(OC)c1: 98.8
- CC(C)CC(NC(=O)C(Cc1ccccc1)NC(=O)c1cnccn1)B(O)O (stereo unspecified) + CNC(=O)c1ccc(Nc2nc(OC3CCCC3)c3c(-c4ccc5nc(C)oc5c4)c[nH]c3n2)c(OC)c1: 0.17
- NC(=O)C(=Cn1cnc(-c2cc(C(F)(F)F)cc(C(F)(F)F)c2)n1)c1cncnc1 + CNC(=O)c1ccc(Nc2nc(OC3CCCC3)c3c(-c4ccc5nc(C)oc5c4)c[nH]c3n2)c(OC)c1: 17.6

### Prompt Which viability, T/C value is on record for CC(C)CC(NC(=O)C(Cc1ccccc1)NC(=O)c1cnccn1)B(O)O (stereo unspecified) + CN1CCN(c2cc(C(=O)Nc3cc4cc(-c5cnn(C)c5)ccc4cn3)ccn2)CC1 ?
### Response 0.41

### Prompt Do the same for C=CC(=O)Nc1cc(Nc2nccc(-c3cn(C)c4ccccc34)n2)c(OC)cc1N(C)CCN(C)C + CN1CCN(c2cc(C(=O)Nc3cc4cc(-c5cnn(C)c5)ccc4cn3)ccn2)CC1 please
### Response 97.6

### Prompt Do the same for NC(=O)C(=Cn1cnc(-c2cc(C(F)(F)F)cc(C(F)(F)F)c2)n1)c1cncnc1 + CN1CCN(c2cc(C(=O)Nc3cc4cc(-c5cnn(C)c5)ccc4cn3)ccn2)CC1 please
### Response 25.1
